Provide the reported OD450 nm of each item.
Target: T1, human GPC3-His protein (human, UniProt P51654 25-559)
T1 construct: Bought protein; also called human GPC3 protein; not shown: His tag
Test: ELISA, coated human GPC3, antibody 0.0001 nM
Give bare numbers, in OD450.

query: For the binder F1.42.8 human-murine chimeric antibody (antibody, human IgG1, kappa, V domains shown) VH: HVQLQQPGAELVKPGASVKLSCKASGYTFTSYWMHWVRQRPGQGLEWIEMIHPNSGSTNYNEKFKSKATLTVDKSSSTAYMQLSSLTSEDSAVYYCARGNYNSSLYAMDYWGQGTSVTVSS VL: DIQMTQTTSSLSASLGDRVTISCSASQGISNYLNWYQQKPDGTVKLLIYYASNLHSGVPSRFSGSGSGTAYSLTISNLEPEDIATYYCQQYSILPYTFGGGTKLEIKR , what OD450 nm is on record?
result: 0.1

Can you give me OD450 nm for all of these, one by one?
1. F1.41.17 human-murine chimeric antibody (antibody, human IgG1, kappa, V domains shown) VH: EVQLVESGGDSVKPGGSLKLSCAASGFTFSSYGMSWVRQTPDKRLEWVATINSGGSYTYYQDSVKGRFTISRDNAKNTLYLQMSSLKSEDTAIYYCVRHHYGSSYDYFDYWGQGTTLTVSS VL: DIVMTQAAPSVPVMPGESVSISCRSSKSLLHSNGNTHLYWFLQRPGQSPQLLIYRMSNLASGVPDRFSGSGSGTAFTLRISRVEAEDVGVYYCMQHLEYPLTFGAGTKLELKR
2. F4.26.1 human-murine chimeric antibody (antibody, human IgG1, kappa, V domains shown) VH: QVQLKQSGPGLVQPSQSLSITCTVSGFSLTSYGVHWVRQSPGKGLEWLGVIWSSGNTDYNAVLISRLSIKKDDSKSQVFFKMNSPQVDDSAIYYCGRNGGWLLRGFMDFWGQGTSVTVSS VL: DVVMTQTPLSLPVSLGDQASISCRSSQSLLHSNGNTYLHWYLQRSGQSPNLLIYKVSNRFSGVPDRFSGGGSGTDFTLKISRVEAEDLGIYFCSQSTHVPWTFGGGTKLEIKR
3. F3.54.12 human-murine chimeric antibody (antibody, human IgG1, kappa, V domains shown) VH: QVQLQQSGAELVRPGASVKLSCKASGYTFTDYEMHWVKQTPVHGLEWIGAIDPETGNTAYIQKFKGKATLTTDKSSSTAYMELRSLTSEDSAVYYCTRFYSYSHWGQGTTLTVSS VL: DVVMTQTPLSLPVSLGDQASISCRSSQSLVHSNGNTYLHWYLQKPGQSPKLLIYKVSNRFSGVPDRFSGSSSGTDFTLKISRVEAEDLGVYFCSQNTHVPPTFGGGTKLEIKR
4. F2.169.2 human-murine chimeric antibody (antibody, human IgG1, kappa, V domains shown) VH: EVQLVETGGGLVQPKGSLKLSCAASGFSFNTNAMNWVRQAPGKGLEWVARIRSKSNNYATYYADSVKDRFTISRDDSQSMLYLQMNNLKTEDTAMYYCVRDGYYVLFAYWGQGTLVTVSA VL: DVLMTQTPLSLPVSLGDQASISCRFSQSIVNSNGNTYLEWFLQKPGQSPKLLIYKVSNRFSGVPDRFSGSGSGTDFTLKISRVEAEDLGVYYCFQGSHVPFTFGTGTKLEIKR

result:
1. 0.08
2. 0.09
3. 0.13
4. 0.1
